test system: NCI-H460 lung; assay: NCI tumour cell line growth inhibition, 48 h
Let's look at some compounds and their measured TGI.

item.smiles	TGI
CCCC(=O)OCOC(=O)N(C)N=Nc1ccc(C(=O)OCC)cc1	71.8 µM
C/C(=N\NC(=O)C(N)=O)c1c(O)cc(C)oc1=O	> 100 µM
CC(=O)O[C@@H]1[C@H]2[C@@H](OC(=O)c3ccccc3)[C@@H](C)C[C@]2(O)[C@H](OC(C)=O)[C@@]2(C)[C@@H]3C[C@@](C)(OC(C)=O)C[C@@H](OC(C)=O)[C@@]3(OC(C)=O)C[C@@]12C	> 10 µM
COc1ccc(C(=O)Oc2c(C#N)sc3c2c(=O)n(-c2ccccc2)c(=S)n3-c2ccccc2)cc1	> 100 µM

Reference for the values: PubChem BioAssay (NCI)
